- recorded.conditions: buffer; pH 7.4; 200.0 µM
Each record here notes measured solubility kinetic.
Use µg/mL as the unit, but write only the number.

Here are 3 compounds together with their reported answers.
CC(=O)c1cnc(-c2cccc(Cl)c2)s1 | 1.3
Cc1ccc(NC(=O)C2=CC=CN3CCS(=O)(=O)N=C23)cc1 | 11.6
O=C(NC(=S)NC(CO)Cc1ccccc1)c1ccc(F)cc1 (configuration not stated) | 4.9

Continue with the next compound.
Enquiry: Return reported solubility kinetic. Input compound: O=C(c1ccccc1[N+](=O)[O-])N1CCCC(C(=O)N2CCCCCC2)C1 (configuration not stated)
Return: 53

---

- recorded.conditions: buffer; pH 7.4; 200.0 µM
Each record here notes measured solubility kinetic.
Use µg/mL as the unit, but write only the number.

O=C(Nc1ccc(CN2CCOCC2)cc1)c1ccc(Cl)cc1Cl | 19.9

Enquiry: Return reported solubility kinetic. Input compound: Nc1ccc(S(=O)(=O)Nc2ccc(C(=O)c3ccccc3)cc2)cc1
Return: 9.4

Enquiry: Return reported solubility kinetic. Input compound: O=C(NC1CCCC1)C1CCCN(S(=O)(=O)c2ccc(F)cc2)C1 (configuration not stated)
Return: 3.4

Enquiry: Return reported solubility kinetic. Input compound: C#CC(CC)(CC)NC(=O)/C=C/C(=O)O
Return: 27.7

Enquiry: Return reported solubility kinetic. Input compound: O=C(COC(=O)c1ccc([N+](=O)[O-])o1)Nc1ccc2c(c1)OCO2
Return: 16.9

Enquiry: Return reported solubility kinetic. Input compound: CC1CN(C(=S)Nc2cccc(Cl)c2Cl)CC(C)O1 (configuration not stated)
Return: 18.9

Enquiry: Return reported solubility kinetic. Input compound: Cc1coc2cc3oc(=O)c(CCC(=O)NC4CC4)c(C)c3cc12
Return: 16.7

Enquiry: Return reported solubility kinetic. Input compound: NS(=O)(=O)c1ccc(NC(=O)COC(=O)c2ccco2)cc1
Return: 30

Enquiry: Return reported solubility kinetic. Input compound: CCOc1ccc(S(=O)(=O)n2cnc3ccccc32)cc1
Return: 42.4
